// provenance: patent US20210253718A1

Biological target: T1, FZD8-Fc (Homo sapiens, UniProt Q9H461)
T1 construct: segment consists of an extracellular portion of Frizzled which includes the CRD; Fc (C)
T1 sequence (Q9H461 30-151 limits assumed): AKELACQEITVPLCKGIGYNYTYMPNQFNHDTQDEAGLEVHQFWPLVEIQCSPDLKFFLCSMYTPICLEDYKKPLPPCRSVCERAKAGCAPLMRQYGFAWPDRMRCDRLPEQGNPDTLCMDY
Assay: Surface plasmon resonance analysis of IgG binding to Frizzled-Fc chimera
Conditions: SPR, FZD8-Fc
Let's look at some molecules and their measured Ka (association constant).
READOUT TYPE: Ka (association constant) (M⁻¹ s⁻¹)

MOLECULE	READOUT TYPE	QUANTITY UNIT	RECORDED NUMBER
IgG-2929: anti-FZD5 IgG molecule incorporating antibody variable region Fv-2929 (antibody, V domains shown) VH: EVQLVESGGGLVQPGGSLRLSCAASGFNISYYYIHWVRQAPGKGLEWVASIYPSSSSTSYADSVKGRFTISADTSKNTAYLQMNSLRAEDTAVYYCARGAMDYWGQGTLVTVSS VL: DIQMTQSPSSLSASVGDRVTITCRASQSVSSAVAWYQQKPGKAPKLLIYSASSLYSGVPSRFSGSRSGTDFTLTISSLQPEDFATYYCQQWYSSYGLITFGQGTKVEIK	Ka (association constant)	M⁻¹ s⁻¹	3.27e+06
IgG-2920: anti-FZD5 IgG molecule incorporating antibody variable region Fv-2920 (antibody, V domains shown) VH: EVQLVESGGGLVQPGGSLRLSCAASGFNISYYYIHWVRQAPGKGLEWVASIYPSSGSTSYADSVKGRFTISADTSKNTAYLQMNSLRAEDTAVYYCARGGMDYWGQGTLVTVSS VL: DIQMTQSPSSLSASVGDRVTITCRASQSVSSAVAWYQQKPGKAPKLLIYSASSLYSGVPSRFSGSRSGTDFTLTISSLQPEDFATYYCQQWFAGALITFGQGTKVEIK	Ka (association constant)	M⁻¹ s⁻¹	4.25e+06
IgG-2916: anti-FZD5 IgG molecule incorporating antibody variable region Fv-2916 (antibody, V domains shown) VH: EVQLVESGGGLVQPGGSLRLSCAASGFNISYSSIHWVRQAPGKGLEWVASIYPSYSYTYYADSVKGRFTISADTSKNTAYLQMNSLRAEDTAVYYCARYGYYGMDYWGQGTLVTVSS VL: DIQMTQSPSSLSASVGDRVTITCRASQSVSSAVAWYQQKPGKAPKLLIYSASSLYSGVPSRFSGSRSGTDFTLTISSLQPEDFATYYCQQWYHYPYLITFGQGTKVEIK	Ka (association constant)	M⁻¹ s⁻¹	1.04e+06
